- Assay protocol: yeast display, Sf9 membrane polyspecificity reagent, FACS + sequencing; frameworks hold sequencing errors
Observable: polyreactivity (PSR sort gate)

These solved cases illustrate the format of a correct answer.
{"Biopolymer sequence": "QVQLVESGGGLVQAGGSLRLTCAASGRIFYHYAMGWYRQATGKERELVATISGAGSTHYADSVKGRFTISRDNAKNTVYLQMNSLKAEDTAVYYCNADTYLIRYWSMLEYWGQGTQVTVSS", "polyreactivity (PSR sort gate)": "low polyreactivity"}
{"Biopolymer sequence": "HDQLVETGGGLVQAGGSLRLSCAASGRTYSKYAMGRYRQPPGKERELVAAITSGGGTYYADSVKGRFTISRDNAKNTVYVQMNSLSPEDSAVYYCAVSVTTVSTHDYWGQGTQVTVSS", "polyreactivity (PSR sort gate)": "low polyreactivity"}
{"Biopolymer sequence": "QFQLVESGGGLVQAGGSLRLSCAASASTYYYYVMGWSIQAPVKEREVVAAITRSTGSTYYADSVKGRFTISRDNAKNTVYLNKNSLKPEETSVYYCAAEGPKWYYSGAFDYWGQGSQVTVSS", "polyreactivity (PSR sort gate)": "low polyreactivity"}
{"Biopolymer sequence": "QVQLVESGGGLVQAGGSLRLSCAASGSIFTFYAMGWYRQAPGKERELVATINRIGGNTYYADSVKGRFTISRDNAKNTVYLQMNSLKPEDTAVYYCAAKPTYRGYGYGSWGQGTQVTVSS", "polyreactivity (PSR sort gate)": "low polyreactivity"}
{"Biopolymer sequence": "QVQLVESGGGLVQAGGSLRLSCAASGRTFRPYAMGWYRQAPGKERELVAAIDSSGTSTYYADSVKGRFTISRDNAKNTVYLQMYSLKPEDTAVYYCAKAWPDHWYSRYDYWGQGTQVTVSS", "polyreactivity (PSR sort gate)": "low polyreactivity"}

Request: Specify measured polyreactivity (PSR sort gate) for `QVQLGESGGGIVQAGGSLRLSCAASGRTLQQYVMGWYRQAPGKETELVAAITRGGRTNYADSVKGRFTISRDNAKNTVYLQRNSLKPEDTAVYYCNSRYPSRLVAWLDYWGQGTQVTVSS` .
Result: low polyreactivity

Request: Determine from records and report polyreactivity (PSR sort gate) for `QVQRVESGGGLVQAGGSLRLRCAASGSIFYQYALGWYRQARGKEREWVAAISRSGGRTYYADSVKGRFTISRDNAKNTVYLQMNSLKPEDTAVYYCAAGTSWPWYQRDYWGQGTQVTVSS`
Result: low polyreactivity

Request: Kindly indicate its recorded polyreactivity (PSR sort gate). Item: `QVQLVESGGGLDQAGGSLSLSCAASGYTYRLYAMGWYRQAPGKERELVAAITWRGGSTYYADSVKGRFTISRDNAKNTVYLQMNSLKPEDTAVYYCAAEFYIGRQGNYWGLGTQVTVSS`
Result: high polyreactivity

Request: Give the value of polyreactivity (PSR sort gate) reported for the following: `QVQLVESGGGLVQAGGSLRLSCAASGRIFLVYAMGWYRQAPGKERELVAAISYSGGRTYYADSVKGRFTISRDNAKNTVYLQMNSLKPEDTAVYYCAAKRITYYGGGRFYYWGQGTQVTVSS`
Result: high polyreactivity
